Source of measurements: ChEMBL document CHEMBL5058564

System: Fibroblast
Assay: Incucyte cell viability with human fibroblast; further: unitless GR value; below 1 slowed growth and below 0 cell loss
Type: toxicity, cell-based
Details: 6 h, 10 µM, compound concentration 10 uM, replicate number 1, timepoint 6 hours
Label YES when Growth Rate is strictly below 0.6; otherwise label NO.

Answered cases to consult:
CC(C)Oc1ccc(-c2nc(-c3cccc4c3CC[C@@H]4NCCO)no2)cc1C#N    YES
CNCCN1CCC(c2cc(CN(C)C(=O)c3cccc(Oc4ccccc4)c3)ccn2)CC1    NO
COC[C@@H](c1ccc(C(F)(F)F)cc1)N1CCN(C2(C)CCN(C(=O)c3c(C)ncnc3C)CC2)C[C@@H]1C.O=C(O)/C=C\C(=O)O [VICRIVIROC MALEATE]    YES
COCCN1CCC(c2cc(CN(C)C(=O)c3cccc(Oc4ccccc4)c3)ccn2)CC1    NO
CC[C@@]1(O)C(=O)OCc2c1cc1n(c2=O)Cc2cc3ccccc3nc2-1    NO
Cl.O=C(O)c1cc(-c2ccc(C3CCNCC3)cc2)c2ccc(-c3ccc(C(F)(F)F)cc3)cc2c1    YES

Lab note: confirm whether the reported Growth Rate for this molecule is below 0.6, equality not counting. molecule: COc1ccc(CN(CCN(C)C)c2ccccn2)cc1
YES

Lab note: confirm whether the reported Growth Rate for this molecule is below 0.6, equality not counting. molecule: Nc1nc(CC(=O)Nc2ccc(CCNC[C@H](O)c3ccccc3)cc2)cs1
NO

Lab note: confirm whether the reported Growth Rate for this molecule is below 0.6, equality not counting. molecule: CCNC(=O)c1cc2c(-c3cc(C(C)(C)O)ccc3Oc3c(C)cc(F)cc3C)cn(C)c(=O)c2[nH]1
YES

Lab note: confirm whether the reported Growth Rate for this molecule is below 0.6, equality not counting. molecule: Cc1cc(=O)n(C)c2cc(N3C(=O)CC[C@H](NS(=O)(=O)CC(C)C)[C@H]3c3ccc(Cl)cc3)ccc12
YES

Lab note: confirm whether the reported Growth Rate for this molecule is below 0.6, equality not counting. molecule: Cc1cc(Nc2ncc(Cl)c(Nc3ccccc3S(=O)(=O)C(C)C)n2)c(OC(C)C)cc1C1CCNCC1
YES

Lab note: confirm whether the reported Growth Rate for this molecule is below 0.6, equality not counting. molecule: CCCN[C@H]1CCc2nc(N)sc2C1.Cl.Cl
YES

Lab note: confirm whether the reported Growth Rate for this molecule is below 0.6, equality not counting. molecule: CC1=C(C)C(=O)C(C(C)(C)CC(=O)N(CCCCSC[C@H]2O[C@@H](n3cnc4c(N)ncnc43)[C@H](O)[C@@H]2O)Cc2cccc(-c3ccc(Cl)cc3)c2)=C(C)C1=O
YES

Lab note: confirm whether the reported Growth Rate for this molecule is below 0.6, equality not counting. molecule: CC#C[C@@H](CC(=O)O)c1ccc(OCc2cccc(-c3ccc(C(F)(F)F)cc3)c2)cc1
NO

Lab note: confirm whether the reported Growth Rate for this molecule is below 0.6, equality not counting. molecule: C=CCN1C[C@H](C(=O)N(CCCN(C)C)C(=O)NCC)C[C@@H]2c3cccc4[nH]cc(c34)C[C@H]21
YES

* * *

Tested on: HEK-293T
Test: Incucyte cell viability with HEK293T; further: unitless GR value; below 1 slowed growth and below 0 cell loss
Assay type: toxicity, cell-based
Conditions: human, 24 h, 10 µM, compound concentration 10 uM, replicate number 2, timepoint 24 hours
Quick rule: Growth Rate of at least 0.7 means true (1), below that means false (0).

Answered cases to consult:
COc1ccc2cc(S(=O)(=O)N[C@H](CC(=O)N[C@H](Cc3ccc(CN4[C@H](C)CCC[C@@H]4C)cc3)C(=O)N(C)C(C)C)c3ccc4c(c3)OCO4)ccc2c1.Cl    false (0)
CN(C)[C@H]1CN(C2CCc3cccc(F)c32)C[C@@H]1c1ccc(N2CCN(S(C)(=O)=O)CC2)cc1 (stereo partly drawn)    true (1)

Growth Rate >= 0.7 for OC[C@H]1O[C@@H](n2cnc3c(NC4CCCC4)ncnc32)[C@H](O)[C@@H]1O ?
false (0)

Growth Rate >= 0.7 for N#Cc1c(N)nc(SCc2csc(-c3ccc(Cl)cc3)n2)c(C#N)c1-c1ccc(OCCO)cc1 ?
false (0)
